- assay: Acute toxicity, 7-day test, method of Litchfield and Wilcoxon
- test_parameters: mouse, in vivo, po, i.g., mice
- Description: The toxicity has been determined in a 7-day test with NMRI-mice having an average body weight of 18 to 26 g according to the method of Litchfield and Wilcoxon.

compound: CC(=O)Oc1cc(C(C)C)c(OCCN(C)C)cc1C [Compound A, reference compound]
LD50 at 168 h: 193 mg/kg
//
compound: CCCCCCCCCC(=O)Oc1cc(C(C)C)c(OCCN(C)C)cc1C [Compound 2]
LD50 at 168 h: 1020 mg/kg
//
compound: Cc1cc(OCCN(C)C)c(C(C)C)cc1OC(=O)OC(C)C [Compound 1]
LD50 at 168 h: 272 mg/kg
//
compound: CCCCCCCC(=O)Oc1cc(C(C)C)c(OCCN(C)C)cc1C [Compound 3]
LD50 at 168 h: 400 mg/kg

* * *

- Tested on: nictitating-membrane
- assay: Adrenaline stimulated nictitating-membrane of anesthetized cats (peripheral vasodilation)
- Assay type: in vivo
- test_parameters: 0.025 mg/kg i.v., anesthetized cats, 0.01 mg Adrenaline i.v.
assay_endpoint: change in adrenaline-induced nictitating-membrane contraction

molecule: CCCCCCCCCC(=O)Oc1cc(C(C)C)c(OCCN(C)C)cc1C
result: ~ 10%

molecule: Cc1cc(OCCN(C)C)c(C(C)C)cc1OC(=O)OC(C)C
result: ~ 60%

molecule: CC(=O)Oc1cc(C(C)C)c(OCCN(C)C)cc1C [Compound A, reference compound]
result: 0%

molecule: CCCCCCCC(=O)Oc1cc(C(C)C)c(OCCN(C)C)cc1C
result: ~ 30%

* * *

Measured LD50 at 168 h values are reported for all entries that follow.
- assay: Acute toxicity, 7-day test, method of Litchfield and Wilcoxon
- test_parameters: mouse, in vivo, sc, mice
- Excerpt: The toxicity has been determined in a 7-day test with NMRI-mice having an average body weight of 18 to 26 g according to the method of Litchfield and Wilcoxon.

molecule: Cc1cc(OCCN(C)C)c(C(C)C)cc1OC(=O)OC(C)C
LD50 at 168 h [mg/kg]: 210

molecule: CC(=O)Oc1cc(C(C)C)c(OCCN(C)C)cc1C [Compound A, reference compound]
LD50 at 168 h [mg/kg]: 156

molecule: CCCCCCCCCC(=O)Oc1cc(C(C)C)c(OCCN(C)C)cc1C
LD50 at 168 h [mg/kg]: 1550
